// Ratio lookup, one value per entry
target: ATP-dependent translocase ABCB1 (Homo sapiens); assay: Inhibition of ABCB1 in multidrug resistant human COLO320 cells assessed as fluorescence activity ratio at 20 uM incubated for 10 mins by flow cytometry based rhodamine-123 accumulation assay (reference value: 0.62)

Examples from the recorded data:
compound: C/C1=C\[C@@H]2[C@H](CC[C@]3(CO3)[C@H](OC(=O)C34CC5CC(CC(C5)C3)C4)[C@H]3[C@@H](OC(=O)C45CC6CC(CC(C6)C4)C5)[C@@H](C)C[C@]3(O)C1=O)C2(C)C
result: 1.64

compound: CCN(CC)C(=O)O[C@@H]1[C@@H]2[C@@H](OC(=O)N(CC)CC)[C@]3(CC[C@H]4[C@@H](/C=C(\C)C(=O)[C@@]2(O)C[C@@H]1C)C4(C)C)CO3
result: 3.54

compound: COc1ccc(CCN(C)CCCC(C#N)(c2ccc(OC)c(OC)c2)C(C)C)cc1OC (stereo unspecified)
result: 8.95

Problem: Record "C/C1=C\[C@@H]2[C@H](CC[C@]3(CO3)[C@H](O)[C@H]3[C@@H](O)[C@@H](C)C[C@]3(O)C1=O)C2(C)C" : what is its Ratio with ATP-dependent translocase ABCB1 (Homo sapiens)?
Solution: 1.05

Problem: Record "CO[C@H]1[C@@H]2[C@H](CC[C@]3(COC(=O)c4ccc(C(F)(F)F)cc4)O[C@@H]3[C@H]3[C@@H](OC(=O)c4ccc(C(F)(F)F)cc4)[C@@H](C)C[C@]3(O)C(=O)[C@@H]1C)C2(C)C" : what is its Ratio with ATP-dependent translocase ABCB1 (Homo sapiens)?
Solution: 11.56

Problem: Record "C/C1=C\[C@@H]2[C@H](CC[C@@](C)(O)[C@H](O)[C@H]3[C@@H](OC(=O)c4ccccc4)[C@@H](C)C[C@]3(O)[C@H]1OC(=O)c1ccccc1)C2(C)C" : what is its Ratio with ATP-dependent translocase ABCB1 (Homo sapiens)?
Solution: 5.78

---

// Ratio lookup, one value per entry
molecular target: ATP-dependent translocase ABCB1 (Homo sapiens, UniProt P08183); assay: Inhibition of human ABCB1 expressed in mouse L5178Y cells assessed as fluorescence activity ratio at 2 uM incubated for 10 mins by flow cytometry based rhodamine-123 accumulation assay (reference value: 0.78); assay type: cell-based
Sequence (P08183 whole entry): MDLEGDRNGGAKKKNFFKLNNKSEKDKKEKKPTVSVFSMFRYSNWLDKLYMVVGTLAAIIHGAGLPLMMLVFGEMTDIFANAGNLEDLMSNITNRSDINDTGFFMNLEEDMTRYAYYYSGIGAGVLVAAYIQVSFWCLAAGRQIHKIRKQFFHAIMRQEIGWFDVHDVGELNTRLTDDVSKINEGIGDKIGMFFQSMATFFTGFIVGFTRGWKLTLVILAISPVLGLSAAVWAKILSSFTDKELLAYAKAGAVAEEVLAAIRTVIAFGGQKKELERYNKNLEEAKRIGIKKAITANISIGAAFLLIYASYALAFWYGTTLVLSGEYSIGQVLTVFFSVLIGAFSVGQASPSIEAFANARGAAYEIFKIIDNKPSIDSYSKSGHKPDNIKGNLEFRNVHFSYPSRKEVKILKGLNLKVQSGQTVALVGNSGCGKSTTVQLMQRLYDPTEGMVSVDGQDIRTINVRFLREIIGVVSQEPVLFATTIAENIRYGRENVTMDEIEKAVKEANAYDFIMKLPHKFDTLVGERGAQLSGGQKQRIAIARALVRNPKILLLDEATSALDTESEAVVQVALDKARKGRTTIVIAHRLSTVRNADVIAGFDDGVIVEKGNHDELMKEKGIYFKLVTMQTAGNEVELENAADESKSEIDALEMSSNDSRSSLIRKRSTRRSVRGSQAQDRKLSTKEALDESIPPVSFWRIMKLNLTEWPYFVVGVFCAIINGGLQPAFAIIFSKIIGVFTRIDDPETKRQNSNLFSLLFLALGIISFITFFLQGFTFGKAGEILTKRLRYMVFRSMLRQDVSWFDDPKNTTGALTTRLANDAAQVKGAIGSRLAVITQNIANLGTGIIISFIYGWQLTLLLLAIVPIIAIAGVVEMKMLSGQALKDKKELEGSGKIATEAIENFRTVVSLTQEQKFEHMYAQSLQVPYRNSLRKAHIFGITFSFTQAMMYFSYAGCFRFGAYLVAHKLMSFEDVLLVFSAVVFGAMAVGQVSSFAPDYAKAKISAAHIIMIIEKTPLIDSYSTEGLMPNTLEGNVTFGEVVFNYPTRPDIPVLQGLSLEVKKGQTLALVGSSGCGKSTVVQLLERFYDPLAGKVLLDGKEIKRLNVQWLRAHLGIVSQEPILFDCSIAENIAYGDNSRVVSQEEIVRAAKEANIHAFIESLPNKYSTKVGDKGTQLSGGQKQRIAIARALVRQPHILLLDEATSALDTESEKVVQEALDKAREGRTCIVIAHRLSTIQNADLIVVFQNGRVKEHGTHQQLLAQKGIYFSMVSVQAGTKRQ
API note: the answer field is a bare number with no unit suffix.

Examples from the recorded data:
smiles data: C/C1=C\[C@@H]2[C@H](CC[C@]3(CO3)[C@H](OC(=O)c3ccc(N(C)C)cc3)[C@H]3[C@@H](OC(=O)c4ccc(N(C)C)cc4)[C@@H](C)C[C@]3(O)C1=O)C2(C)C
Ratio: 8.03

smiles data: C/C1=C\[C@@H]2[C@H](CC[C@]3(CO3)[C@H](OC(=O)c3ccc(C(F)(F)F)cc3)[C@H]3[C@@H](OC(=O)c4ccc(C(F)(F)F)cc4)[C@@H](C)C[C@]3(O)C1=O)C2(C)C
Ratio: 38.72

smiles data: CCC(=O)OC[C@]1(O)CC[C@H]2[C@@H](/C=C(\C)C(=O)[C@@]3(O)C[C@H](C)[C@H](OC(=O)CC)[C@@H]3[C@H]1O)C2(C)C
Ratio: 1.16

smiles data: COc1cccc(C(=O)O[C@@H]2[C@@H]3[C@@H](OC(=O)c4cccc(OC)c4)[C@]4(CC[C@H]5[C@@H](/C=C(\C)C(=O)[C@@]3(O)C[C@@H]2C)C5(C)C)CO4)c1
Ratio: 60.62

smiles data: C/C1=C\[C@@H]2[C@H](CC[C@]3(CO3)[C@H](OC(=O)C34CC5CC(CC(C5)C3)C4)[C@H]3[C@@H](OC(=O)C45CC6CC(CC(C6)C4)C5)[C@@H](C)C[C@]3(O)C1=O)C2(C)C
Ratio: 22.36

smiles data: C/C1=C\[C@@H]2[C@H](CC[C@@](C)(O)[C@H](O)[C@H]3[C@@H](OC(=O)c4ccccc4)[C@@H](C)C[C@]3(O)[C@H]1O)C2(C)C
Ratio: 1.45

Problem: For the compound "C/C1=C\[C@@H]2[C@H](CC[C@]3(CO3)[C@H](O)[C@H]3[C@@H](O)[C@@H](C)C[C@]3(O)C1=O)C2(C)C" , what Ratio is on record?
Solution: 1.15

Problem: For the compound "C/C1=C\[C@@H]2[C@H](CC[C@]3(CO3)[C@H](OC(=O)N(C)C)[C@H]3[C@@H](O)[C@@H](C)C[C@]3(O)C1=O)C2(C)C" , what Ratio is on record?
Solution: 0.67

Problem: For the compound "CO[C@H]1[C@@H]2[C@H](CC[C@]3(COC(=O)c4ccccc4)O[C@@H]3[C@H]3[C@@H](OC(=O)c4ccccc4)[C@@H](C)C[C@]3(O)C(=O)[C@@H]1C)C2(C)C" , what Ratio is on record?
Solution: 67.06

Problem: For the compound "C/C1=C\[C@@H]2[C@H](CC[C@@](C)(O)[C@H](O)[C@H]3[C@@H](OC(=O)c4ccccc4)[C@@H](C)C[C@]3(O)[C@H]1OC(=O)c1ccccc1)C2(C)C" , what Ratio is on record?
Solution: 43.35

Problem: For the compound "CCO[C@@H]1[C@@H]2C(=O)C(O)(C[C@H](C)[C@@H]2O)/C(C)=C\[C@@H]2[C@H](CC[C@@]1(O)CO)C2(C)C" , what Ratio is on record?
Solution: 5.85
